Experiment: gradient 5% acetonitrile 3 min, to 50% in 2 min, to 85% in 15 min, held 3 min, 100 µL/min
Settings: column: Zorbax Extend-C18 2.1 x 50 mm; eluents: water / acetonitrile, 0.1% formic acid
Observation type: RP-LC retention time (s)

{"Molecule": "COC(=O)c1ccccc1Nc1c(-c2ccc(OC)c(OC)c2)nc2cnccn12", "Measure unit": "s", "RP-LC retention time": 732}
{"Molecule": "CCc1ccc(C2=C(C)C(N3CCCN(C(=O)NC(C)C)CC3)=NS2(=O)=O)cc1", "Measure unit": "s", "RP-LC retention time": 849}
{"Molecule": "CCc1nnc(C2CN(C)CC23CCN(S(=O)(=O)c2cccc(Cl)c2)CC3)o1 (configuration not stated)", "Measure unit": "s", "RP-LC retention time": 645}
{"Molecule": "O=C(Cn1cncc(-c2nc(-c3ccccc3)cs2)c1=O)N1CCCC1", "Measure unit": "s", "RP-LC retention time": 789}
{"Molecule": "CC1CCCN(C(=O)C2CC(=O)N(c3ccc4c(c3)CCN4C(=O)C3CC3)C2)C1 (configuration not stated)", "Measure unit": "s", "RP-LC retention time": 758}
{"Molecule": "CCc1ccc(C(=O)N2CCCN(C3=NS(=O)(=O)C(c4ccccc4)=C3C)CC2)cc1", "Measure unit": "s", "RP-LC retention time": 894}
{"Molecule": "Cc1ccc(C(CC(=O)N2CCN(c3ccccn3)CC2)n2cccc2)cc1 (configuration not stated)", "Measure unit": "s", "RP-LC retention time": 995}
{"Molecule": "CC(C)NC(=O)N1CCC[C@H]1c1nc(-c2ccc(F)cc2)n[nH]1", "Measure unit": "s", "RP-LC retention time": 678}
{"Molecule": "O=C(Nc1ccc(N2CCN(C3CCCC3)C2=O)nc1)c1cccnc1", "Measure unit": "s", "RP-LC retention time": 638}
{"Molecule": "COc1ccc2c(c1)C1(CCN(C(=O)Cc3ccccc3Cl)C1)C(=O)N2 (configuration not stated)", "Measure unit": "s", "RP-LC retention time": 773}
{"Molecule": "COCCn1ccc2nc(C)c(C(=O)Nc3cccc(SC)c3)cc2c1=O", "Measure unit": "s", "RP-LC retention time": 746}
{"Molecule": "Cc1c(Cl)cccc1Nc1c(-c2ccc(Cl)cc2)nc2cnccn12", "Measure unit": "s", "RP-LC retention time": 1120}
{"Molecule": "CN(C)c1ncncc1N1CCC(C(=O)N2CCOCC2)CC1", "Measure unit": "s", "RP-LC retention time": 567}
{"Molecule": "O=C(NCCCN1CCCCCC1)C(c1ccccc1)C1CCCCC1 (configuration not stated)", "Measure unit": "s", "RP-LC retention time": 875}
{"Molecule": "Cc1cc(C)cc(-c2nc(-c3ccc4c(c3)oc(=O)n4C)no2)c1", "Measure unit": "s", "RP-LC retention time": 1060}
{"Molecule": "COCC(=O)N1CCCCCCNC(=O)[C@@H]2CCCC[C@@H]21", "Measure unit": "s", "RP-LC retention time": 659}
{"Molecule": "Cc1ccc(C(C)NC(=O)c2cn3c(n2)CCCC3)c(C)c1 (configuration not stated)", "Measure unit": "s", "RP-LC retention time": 642}
{"Molecule": "CCCN1CCN(CCCNC(=O)C2CCCN(S(=O)(=O)c3ccc4c(ccn4C)c3)C2)CC1 (configuration not stated)", "Measure unit": "s", "RP-LC retention time": 598}
{"Molecule": "CC(=O)Nc1cccc(C2OC(c3cc(Br)ccc3OC(C)=O)=NN2C(C)=O)c1 (configuration not stated)", "Measure unit": "s", "RP-LC retention time": 828}
{"Molecule": "CCSc1nnc(NC(=O)Cc2csc(NC(=O)c3ccc4c(c3)OCO4)n2)s1", "Measure unit": "s", "RP-LC retention time": 804}
{"Molecule": "CC(CCc1ccccc1)NC(=O)c1ccc2c(c1)CCCN2S(C)(=O)=O (configuration not stated)", "Measure unit": "s", "RP-LC retention time": 935}
{"Molecule": "CSc1cccc(NC(=O)C2CCN(C(=O)C3Sc4ccccc4NC3=O)CC2)c1 (configuration not stated)", "Measure unit": "s", "RP-LC retention time": 814}
{"Molecule": "Cc1cc(-c2ccc3c(c2)CCN3C(=O)C2CCCO2)on1 (configuration not stated)", "Measure unit": "s", "RP-LC retention time": 767}
{"Molecule": "Cc1cccc(C)c1NC(=O)N1CCCC1c1nncn1C1CCCC1 (configuration not stated)", "Measure unit": "s", "RP-LC retention time": 722}
{"Molecule": "Cc1ccc(OCC(=O)Nc2nnc(C3CC(=O)N(c4ccccc4)C3)o2)cc1 (configuration not stated)", "Measure unit": "s", "RP-LC retention time": 765}
{"Molecule": "COCCN1C(=O)Cc2ccccc2C1C(=O)NCc1ccccc1Cl (configuration not stated)", "Measure unit": "s", "RP-LC retention time": 775}
{"Molecule": "COc1ccc(NC(=O)CSc2nnc3c4sc(N5CCCC5)nc4ncn23)cc1Cl", "Measure unit": "s", "RP-LC retention time": 798}
